Biological target: androgen receptors (Homo sapiens, UniProt P10275, T878A)
Sequence (P10275 1-920 T878A): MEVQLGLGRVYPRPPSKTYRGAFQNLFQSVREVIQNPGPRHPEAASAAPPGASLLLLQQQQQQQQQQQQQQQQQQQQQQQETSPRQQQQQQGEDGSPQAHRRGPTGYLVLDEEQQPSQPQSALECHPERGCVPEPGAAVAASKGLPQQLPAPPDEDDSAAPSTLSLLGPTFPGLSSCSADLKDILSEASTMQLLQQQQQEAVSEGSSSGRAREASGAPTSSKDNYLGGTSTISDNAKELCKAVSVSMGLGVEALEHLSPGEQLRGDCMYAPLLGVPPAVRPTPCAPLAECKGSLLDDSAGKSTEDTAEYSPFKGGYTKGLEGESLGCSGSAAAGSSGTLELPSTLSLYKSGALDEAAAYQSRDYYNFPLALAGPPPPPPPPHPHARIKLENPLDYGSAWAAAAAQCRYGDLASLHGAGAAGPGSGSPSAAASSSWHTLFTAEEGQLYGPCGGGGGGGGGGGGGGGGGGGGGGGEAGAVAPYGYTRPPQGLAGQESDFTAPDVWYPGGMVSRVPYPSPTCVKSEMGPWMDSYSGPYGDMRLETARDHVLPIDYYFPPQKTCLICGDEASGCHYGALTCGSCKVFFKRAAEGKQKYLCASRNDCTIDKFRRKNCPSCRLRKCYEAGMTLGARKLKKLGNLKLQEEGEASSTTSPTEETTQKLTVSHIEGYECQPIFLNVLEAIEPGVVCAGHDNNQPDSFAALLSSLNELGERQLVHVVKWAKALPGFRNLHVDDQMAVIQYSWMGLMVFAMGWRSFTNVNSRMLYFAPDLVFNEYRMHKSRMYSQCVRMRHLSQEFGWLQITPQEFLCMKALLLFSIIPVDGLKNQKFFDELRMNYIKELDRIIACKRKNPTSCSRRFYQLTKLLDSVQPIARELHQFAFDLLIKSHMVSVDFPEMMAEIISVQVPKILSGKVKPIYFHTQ
Test: cell-based
Readout Label: Ki
Please state the number and follow it with the unit.

>  <Compound>
CNC(=O)c1ccc(N2C(=S)N(c3ccc(C#N)c(C(F)(F)F)c3)C(=O)[C@@]2(C)COC)cc1F [II]

>  <Measured Target>
androgen receptors (Homo sapiens, UniProt P10275, T878A)

>  <Ki>
34.9 nM

$$$$

Now look at this one.
**Query** Looking for the measured Ki of CNC(=O)c1ccc(N2C(=S)N(c3ccc(C#N)c(C(F)(F)F)c3)C(=O)[C@]23CCOC3)cc1F [IV] , can you help?
**Result** 20.1 nM

---

Biological target: androgen receptors (Homo sapiens, UniProt P10275, T878A)
Assay: cell-based
Entries annotated with measured pIC50
Reminder that pIC50 means the negative base-10 logarithm of the concentration expressed in mol/L.

>  <Molecular String>
CNC(=O)c1ccc(N2C(=S)N(c3ccc(C#N)c(C(F)(F)F)c3)C(=O)[C@@]2(C)COC)cc1F

>  <pIC50>
6.84

$$$$

Lab note: next compound to report on.
**Query** Requested read-out: pIC50. Entry: CNC(=O)c1ccc(N2C(=S)N(c3ccc(C#N)c(C(F)(F)F)c3)C(=O)[C@]23CCOC3)cc1F
**Result** 7.08
